Every entry's value here was drawn from paper PMC4239318.

Provide the recorded IC50 for the entries that follow.
- target: T1, RSV N(13-391), N-terminally truncated nucleocapsid protein (human respiratory syncytial virus, …, UniProt P03418 13-391)
- T1 construct: source: E. coli BL21(DE3)pLysS, purified (Ni2+ chelating, Q-Sepharose, Superdex 200)
- T1 sequence: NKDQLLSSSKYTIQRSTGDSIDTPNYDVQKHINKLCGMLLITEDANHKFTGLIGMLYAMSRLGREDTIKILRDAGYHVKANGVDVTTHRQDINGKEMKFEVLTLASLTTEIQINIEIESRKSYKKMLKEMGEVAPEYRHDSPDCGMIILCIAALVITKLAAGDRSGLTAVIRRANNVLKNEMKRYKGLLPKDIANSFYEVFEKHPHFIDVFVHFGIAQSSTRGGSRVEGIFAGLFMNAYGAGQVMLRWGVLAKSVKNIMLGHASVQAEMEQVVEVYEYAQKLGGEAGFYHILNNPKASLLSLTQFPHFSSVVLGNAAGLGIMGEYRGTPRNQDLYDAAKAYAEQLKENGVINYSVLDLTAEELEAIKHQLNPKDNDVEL
- measurementNotes: SPR; Biacore T200; His10-P immobilised on NTA chip (nickel capture, amine coupling); 100 nM N(13-391) mixed with peptide series; 20 mM HEPES-NaOH pH 7.5, 100 mM NaCl, 1 mM EDTA, 1 mM TCEP, 0.005% Tween 20, 1% DMSO
- measurementContext: both partners purified
Square brackets hold non-standard residues; d marks the D form. Ends that are not written are not given here. pS = N[C@@H](COP(=O)(O)O)C(=O)O
One number for each entry, in µM.

DSDNDLSLEDF (residues 231-241 of RSV phosphoprotein P; N- and C-termini uncapped; source: synthetic peptide (Biopeptide Co.)) [peptide 1, DSDNDLSLEDF (unphosphorylated P C-terminal peptide)]; 230
D[pS]DNDLSLEDF (residues 231-241 of RSV phosphoprotein P; N- and C-termini uncapped; source: synthetic peptide (Biopeptide Co.)) [D(pS)DNDLSLEDF (P C-terminal peptide phosphorylated on the N-terminal serine)]; 44
D[pS]DNDL[pS]LEDF (residues 231-241 of RSV phosphoprotein P; N- and C-termini uncapped; source: synthetic peptide (Biopeptide Co.)) [peptide 5, D(pS)DNDL(pS)LEDF (doubly phosphorylated P C-terminal peptide)]; 13.6

*Q* Param item = DSDNDL[pS]LEDF (residues 231-241 of RSV phosphoprotein P; N- and C-termini uncapped; source: synthetic peptide (Biopeptide Co.)) [DSDNDL(pS)LEDF (P C-terminal peptide phosphorylated on the C-terminal serine)] ; retrieve measured IC50.
*A* 31
